experiment: Stability tests of stabilized Idarubicin HCl, 1% w/v aqueous solution with NH4OAc or NH4OAc + AcOH; assay type: physicochemical; details: NH4OAc 1.5% mol + AcOH 1.5% mol, pH 4.94, 4° C., 314 hr
QUANTITY: aglycone (%)
Respond numerically; units are % and should not be typed.

Please give the measured aglycone for this compound: CC(=O)[C@]1(O)Cc2c(O)c3c(c(O)c2[C@@H](O[C@H]2C[C@@H](N)[C@H](O)C(C)O2)C1)C(=O)c1ccccc1C3=O.Cl (stereo partly shown) [Idarubicin HCl, Idarubicin hydrochloride]
0.59
